Target or system 5-hydroxytryptamine receptor 2A (Rattus norvegicus): recorded Ki listed per item.
// unit must come after the numeric part

{"COMPOUND": "COc1cccc(C(=O)N[C@@H]2CC3CC[C@H](C2)N3Cc2ccncc2)c1OC (single isomer, unassigned)", "ASSAYED SYSTEM": "5-hydroxytryptamine receptor 2A (Rattus norvegicus)", "Ki": "700 nM"}
{"COMPOUND": "COc1cccc(C(=O)N[C@@H]2CC3CC[C@H](C2)N3Cc2ccco2)c1OC (single isomer, unassigned; 14a)", "ASSAYED SYSTEM": "5-hydroxytryptamine receptor 2A (Rattus norvegicus)", "Ki": "2500 nM"}
{"COMPOUND": "COc1cc(C(=O)N[C@H]2CC3CC[C@H](C2)N3Cc2ccco2)cc(OC)c1OC (single isomer, unassigned)", "ASSAYED SYSTEM": "5-hydroxytryptamine receptor 2A (Rattus norvegicus)", "Ki": "1100 nM"}

Q: Query (compound): COc1cccc(C(=O)N[C@@H]2CC3CC[C@H](C2)N3Cc2ccccn2)c1OC (single isomer, unassigned) ; field requested: Ki
Ans: 1000 nM
